Measured ELISA reading values are reported for all entries that follow.
- assayed_target: T1, soluble KDR extracellular domain (ECD) (Calbiochem) (human, UniProt P35968 20-764)
- T1 construct: extracellular domain; Bought protein; also called KDR-ECD; VEGF Receptor 2 D1-7, Cat. #676490
- T1 sequence (P35968 20-764): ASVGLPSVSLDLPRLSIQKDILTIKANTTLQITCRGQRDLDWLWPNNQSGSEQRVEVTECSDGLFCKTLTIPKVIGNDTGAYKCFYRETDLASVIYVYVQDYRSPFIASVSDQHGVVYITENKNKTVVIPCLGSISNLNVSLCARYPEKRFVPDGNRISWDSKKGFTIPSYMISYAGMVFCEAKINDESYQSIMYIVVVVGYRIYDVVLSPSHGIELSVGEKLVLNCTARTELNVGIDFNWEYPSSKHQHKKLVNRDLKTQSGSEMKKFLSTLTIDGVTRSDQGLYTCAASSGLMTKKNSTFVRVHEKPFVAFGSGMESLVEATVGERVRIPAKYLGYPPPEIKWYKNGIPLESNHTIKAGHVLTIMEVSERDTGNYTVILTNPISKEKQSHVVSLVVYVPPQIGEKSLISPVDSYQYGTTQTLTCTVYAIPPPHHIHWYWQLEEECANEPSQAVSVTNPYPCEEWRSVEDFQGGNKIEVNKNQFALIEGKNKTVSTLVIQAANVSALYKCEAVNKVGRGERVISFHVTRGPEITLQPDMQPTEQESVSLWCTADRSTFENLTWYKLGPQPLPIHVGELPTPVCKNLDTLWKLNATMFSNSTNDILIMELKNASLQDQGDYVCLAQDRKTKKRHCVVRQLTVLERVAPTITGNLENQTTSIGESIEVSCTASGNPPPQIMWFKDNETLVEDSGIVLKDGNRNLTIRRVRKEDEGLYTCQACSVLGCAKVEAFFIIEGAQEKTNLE
- measurement_description: High Antigen ELISA, KDR coat 500 ng/mL, supernatant 1:25
parameter_measured: ELISA reading

>>> observed_value("24B3 (antibody, V domains shown, Fully human mAb from XenoMouse hybridoma, tested as hybridoma supernatant) VH: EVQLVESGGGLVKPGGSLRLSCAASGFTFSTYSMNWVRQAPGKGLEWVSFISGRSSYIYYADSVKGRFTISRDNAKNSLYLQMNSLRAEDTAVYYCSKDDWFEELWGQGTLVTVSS VL: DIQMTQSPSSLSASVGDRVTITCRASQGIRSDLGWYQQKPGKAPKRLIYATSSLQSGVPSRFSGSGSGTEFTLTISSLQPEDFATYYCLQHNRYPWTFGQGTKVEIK")
2.33
>>> observed_value("30A1 (antibody, V domains shown, Fully human mAb from XenoMouse hybridoma, tested as hybridoma supernatant) VH: QLQLQESGPGLVKPSETLSLTCTVSGGSISSPNYYWGWIRQPPGKGLEWIGTIYYSGNTFYNPSLKSRVTISVDTSKNQFSLKLSSVTAADTAVYYCATQQLVLYYFDFWGQGTLVTVSS VL: EIVLTQSPGTLSLSPGKRAALSCRASQSISSSYLAWYQQKPGQAPRLLIYGASSRATGIPDRFNGSGSGTDFTLTISRLEPEDFAVYYCQQLGSSITFGQGTRLEIK")
4.52
>>> observed_value("22B8 (antibody, V domains shown, Fully human mAb from XenoMouse hybridoma, tested as hybridoma supernatant) VH: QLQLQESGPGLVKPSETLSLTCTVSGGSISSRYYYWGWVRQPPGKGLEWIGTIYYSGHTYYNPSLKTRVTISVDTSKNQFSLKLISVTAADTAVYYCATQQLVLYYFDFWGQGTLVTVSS VL: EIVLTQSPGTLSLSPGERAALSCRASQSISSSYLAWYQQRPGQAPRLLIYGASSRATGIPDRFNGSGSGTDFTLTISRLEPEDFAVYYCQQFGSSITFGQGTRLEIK")
6

Data provenance is patent US20100260765A1.
